FYI, the data here is from ChEMBL document CHEMBL1133385.

# Target System: Coagulation factor X (Homo sapiens, UniProt P00742)
# Sequence (P00742 41-179 limits assumed): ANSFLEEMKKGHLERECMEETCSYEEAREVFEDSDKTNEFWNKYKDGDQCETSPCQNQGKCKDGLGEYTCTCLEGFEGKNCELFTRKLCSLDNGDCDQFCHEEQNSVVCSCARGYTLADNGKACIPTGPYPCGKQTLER
# Sequence (P00742 235-488 limits assumed): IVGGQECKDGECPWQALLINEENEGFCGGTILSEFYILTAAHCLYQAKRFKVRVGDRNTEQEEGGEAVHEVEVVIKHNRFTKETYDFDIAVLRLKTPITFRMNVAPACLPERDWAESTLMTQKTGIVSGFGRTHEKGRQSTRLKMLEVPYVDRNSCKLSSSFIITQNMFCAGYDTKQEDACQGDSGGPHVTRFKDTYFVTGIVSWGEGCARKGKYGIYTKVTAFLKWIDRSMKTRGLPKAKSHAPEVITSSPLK
# Assay Protocol: Inhibition of coagulation factor Xa

# Compound, Target System, Ki
measured = [
    ("N=C(N)c1cccc(N2CCCCN(C3CCN(Cc4cccs4)CC3)C2=O)c1", "Coagulation factor X (Homo sapiens, UniProt P00742)", "80 nM"),
    ("N=C(N)c1cccc(N2CCCCN(C3CCN(C(=O)Cc4ccccc4)CC3)C2=O)c1", "Coagulation factor X (Homo sapiens, UniProt P00742)", "900 nM"),
    ("N=C(N)c1cccc(N2CCCCN(C3CCN(S(=O)(=O)c4ccccc4)CC3)C2=O)c1", "Coagulation factor X (Homo sapiens, UniProt P00742)", "24 nM"),
    ("N=C(N)c1cccc(N2CCCCN(C3CCN(Cc4cccnc4)CC3)C2=O)c1", "Coagulation factor X (Homo sapiens, UniProt P00742)", "670 nM"),
    ("N=C(N)c1cccc(N2CCCCN(C3CCN(CCc4ccccc4)CC3)C2=O)c1", "Coagulation factor X (Homo sapiens, UniProt P00742)", "220 nM"),
    ("N=C(N)c1cccc(N2CCCCN(C3CCN(S(=O)(=O)c4cccc(N)c4)CC3)C2=O)c1", "Coagulation factor X (Homo sapiens, UniProt P00742)", "200 nM"),
    ("Cl.N=C(N)c1cccc(N2CCCCN(C3CCN(S(=O)(=O)c4cccs4)CC3)C2=O)c1", "Coagulation factor X (Homo sapiens, UniProt P00742)", "12 nM"),
    ("N=C(N)c1cccc(N2CCCCN(C3CCN(S(=O)(=O)c4ccc(N)cc4)CC3)C2=O)c1", "Coagulation factor X (Homo sapiens, UniProt P00742)", "71 nM"),
]

----------
Measured pKi, listed per entry for reference.
# Target System: Serine protease 1 (Homo sapiens)
# Sequence (P07477 whole entry): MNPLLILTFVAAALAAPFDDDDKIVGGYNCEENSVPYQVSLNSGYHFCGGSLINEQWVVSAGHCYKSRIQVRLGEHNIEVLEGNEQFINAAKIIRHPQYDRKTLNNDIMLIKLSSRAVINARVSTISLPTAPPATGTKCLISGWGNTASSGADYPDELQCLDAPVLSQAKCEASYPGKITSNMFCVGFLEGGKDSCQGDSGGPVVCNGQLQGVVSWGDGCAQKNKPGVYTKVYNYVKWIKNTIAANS
# Assay Protocol: Inhibitory activity against trypsin
pKi: −log10 of the molar value.

# Compound, pKi
data = [
    ("N=C(N)c1cccc(N2CCCCN(C3CCN(S(=O)(=O)c4ccccc4N)CC3)C2=O)c1", 6.89),
    ("N=C(N)c1cccc(N2CCCCN(C3CCN(S(=O)(=O)Cc4ccccn4)CC3)C2=O)c1.O=C(O)C(F)(F)F.O=C(O)C(F)(F)F", 7.24),
    ("N=C(N)c1cccc(N2CCCCN(C3CCN(Cc4cccs4)CC3)C2=O)c1", 6.77),
]

----------
# Assay Protocol: Maximum plasma concentration was determined in rabbit at a dose of 5 mg/kg/h administered i.v.
# Format: ADME, organism-based, Oryctolagus cuniculus
# Set-up: dose 5 mg/kg/h, route intravenous
# Assay Context: iv
Quantity Measured: Cmax (µM)

# Compound, Unit Text, Measured Number
records = [
    ("N=C(N)c1cccc(N2CCCCN(C3CCN(S(=O)(=O)Cc4ccccn4)CC3)C2=O)c1.O=C(O)C(F)(F)F.O=C(O)C(F)(F)F", "µM", 2.4),
    ("Cl.N=C(N)c1cccc(N2CCCCN(C3CCN(S(=O)(=O)c4cccs4)CC3)C2=O)c1", "µM", 36),
    ("N=C(N)c1cccc(N2CCCCN(C3CCN(S(=O)(=O)Cc4ccccc4)CC3)C2=O)c1.O=C(O)C(F)(F)F", "µM", 4.8),
]

----------
Measured half-life, listed per entry for reference.
# Assay Protocol: Half life period was determined
# Assay Context: rabbit

# Compound, half-life / min
rows = [
    ("N=C(N)c1cccc(N2CCCCN(C3CCN(S(=O)(=O)Cc4ccccc4)CC3)C2=O)c1.O=C(O)C(F)(F)F", 2.4),
    ("N=C(N)c1cccc(N2CCCCN(C3CCN(S(=O)(=O)Cc4ccccn4)CC3)C2=O)c1.O=C(O)C(F)(F)F.O=C(O)C(F)(F)F", 1.8),
    ("Cl.N=C(N)c1cccc(N2CCCCN(C3CCN(S(=O)(=O)c4cccs4)CC3)C2=O)c1", 66),
]
